# key: entry, value: melting point

Answered examples (5):
>>> value("C#CCN(CCCCO)CCCCCCCCCCCCCCCCCC")
"33 to 34 °C"
>>> value("CCCCCCCCCCCCCCCCCCN(CCBr)CCCCCCCCCCCCCCCCCC")
"69 to 71 °C"
>>> value("CCCCCCCCCCCCCCCCCCN(CCCCCCCCCCCCCCCCCC)C(=O)CCC(=O)O")
"68 to 69 °C"
>>> value("CCCCCCCCCCCCCCCCCCN(CCCCCCCCCCCCCCCCCC)C(=O)CCC(=O)OC")
"29 to 30 °C"
>>> value("CCCCCCCCCCCCCCCC1(CCCCCCCCCCCCCCC)OC2C(CO)OC(n3ccc(=O)[nH]c3=O)C2O1 (stereo not shown) [Compound 25d]")
"93 °C"

# melting point (molecule: COc1ccc(C(OC[C@H]2O[C@@H](n3cnc4c(=O)n(C/C=C(\C)CC/C=C(\C)CCC=C(C)C)cnc43)C[C@@H]2O)(c2ccccc2)c2ccc(OC)cc2)cc1 ) is 68 °C

# melting point (molecule: C#CCN(CC#C)CCCCCCCCCCCCCCCCCC ) is 43 to 44 °C
